# assay_overview: qHTS RealTime-Glo MT Cell Viability Assay in HEK293 cells - 32 hour (AID 1224868); note: top concentration of the series differs between compounds; nearly all actives have a fitted effect of over 50% in size
# measurement_conditions: RealTime-Glo luminescence; series mostly up to 76.8 µM
Records with an inconclusive call do not appear. Activity calls are given as the source filed them. Calls come from the whole dose curve; as a rule, active = well fitted cell-killing curve with a large enough effect in the repeat runs; inconclusive = weak or mixed curves, or effect the other way; inactive = flat fitted curve, though single readings scatter.
property_name: activity change, negative = cytotoxic

Study these solved cases before continuing.
# compound, activity change, negative = cytotoxic
measured = [
    ("[O-][n+]1cccc(/C(Cl)=N/OC[C@@H](O)CN2CCCCC2)c1", "inactive"),
    ("COc1cc(/C=C/C(N)=O)cc(OC)c1OC", "inactive"),
    ("COP(=O)(O)OP(=O)(O)OC", "inactive"),
    ("O=C1CCC(=O)N1Cl", "inactive"),
    ("COC(=O)c1ccccc1C(=O)O", "inactive"),
]

The compound identified as CCc1occc(=O)c1O registered its activity change, negative = cytotoxic at inactive

The recorded activity change, negative = cytotoxic for entry COC(=O)c1cccc(Cl)c1 equals inactive

For this compound ( c1ccc2c(CC3=NCCN3)cccc2c1 ), measured activity change, negative = cytotoxic is inactive

----------
# assay_overview: qHTS assay to test for compound auto fluorescence at 590 nm (red) in HEK293 cell free culture (AID 720683)
# measurement_conditions: cell-free medium autofluorescence, Ex540/Em590 red; series mostly up to 91.3 µM
Active and inactive are the calls of the source. Calls follow the shape of the dose curve; as a rule, active = well fitted curve in the direction sought with a large enough effect in the repeat runs; inconclusive = weak or mixed curves; inactive = flat fitted curve, though single readings scatter.

# compound, fluorescence, % of fluorescent control
measured = [
    ("ONc1ccccc1", "inactive"),
    ("Cc1ncc([N+](=O)[O-])n1CC(C)O (centres undefined)", "inactive"),
    ("CCCCCCCCCOC(=O)CCCCC(=O)OCCCCCCC", "inactive"),
    ("CCOCCOCC", "inactive"),
]

----------
# assay_overview: A CellTox Green Cytotoxicity Assay to monitor cytotoxicity in HEK293 cells - 32 hour (AID 1224881); note: nearly all actives have a fitted effect of over 40% in size
# measurement_conditions: CellTox Green fluorescence; series mostly up to 76.8 µM
Results filed as inconclusive are left out. The source made the active and inactive calls. Calls come from the whole dose curve; as a rule, active = well fitted activation curve with a large enough effect in the repeat runs; inconclusive = weak or mixed curves; inactive = flat fitted curve, though single readings scatter.
property_name: cytotoxicity increase

These solved cases illustrate the format of a correct answer.
# compound, cytotoxicity increase
data = [
    ("O=C(O)[C@H](O)c1ccccc1", "inactive"),
    ("CCCCOC(=O)C(C)O (configuration not stated)", "inactive"),
    ("NCc1ccc(S(N)(=O)=O)cc1", "inactive"),
    ("CC(=O)O[C@H]1C[C@@H]2CC[C@@]1(C)C2(C)C", "inactive"),
    ("Cn1c(=O)c2[nH]c(Br)nc2n(C)c1=O", "inactive"),
]

Briefly, cytotoxicity increase measured for N#Cc1ccccc1O : inactive

Field cytotoxicity increase (entry C/C(CC(C)C)=N\O ) reads inactive

Entry Cc1cccc(Cl)c1 , cytotoxicity increase reported as inactive

Reported cytotoxicity increase for CCCCSCCCC was inactive

Per the record, CC1(C)[C@H]2CC[C@](C)(C2)[C@H]1O has cytotoxicity increase of inactive

The reported cytotoxicity increase of the compound N#CCC(=O)NN was inactive

response.value for CC(=O)c1cc(C)oc1C (field: cytotoxicity increase) = inactive

Short answer for C[C@@H](O)C(=O)O : cytotoxicity increase was inactive

Documented cytotoxicity increase of C=Cc1ccc(C(C)(C)C)cc1 : inactive

----------
# experimental_system: Thyrotropin receptor (Homo sapiens)
# assay_overview: qHTS assay to identify small molecule antagonists of the thyroid stimulating hormone receptor (TSHR) signaling pathway (AID 1259385); note: nearly all actives have a fitted effect of over 20% in size
# measurement_conditions: TSHR-HEK293 cAMP HTRF, TSH-stimulated antagonist mode; series mostly up to 92.4 µM
Inconclusive results are not listed. The source made the active and inactive calls. Calls follow the shape of the full dose curve.
property_name: activity change, negative = inhibition

Some solved cases for reference:
# compound, result
rows = [
    ("CC1=NN(c2ccc(S(=O)(=O)O)cc2)C(=O)C1", "inactive"),
    ("COC(C)(OC)OC", "inactive"),
    ("CC(C)(CO)C(O)C(=O)NCCCO (stereo not drawn)", "inactive"),
    ("CC(C)C[C@@H]1[C@H](c2ccccc2)OC(=O)N1CCCN1CCCCCC1", "inactive"),
    ("CN(C)C(C)(C)CO", "inactive"),
]

activity change, negative = inhibition reading for O=C1CCCCO1 : inactive

Measured activity change, negative = inhibition, Cc1ccccc1C(N)=O : inactive

Entry under test: CCC(C)OC(C)CC (stereo not drawn) . Its activity change, negative = inhibition was inactive
